test: NCI Yeast Anticancer Drug Screen. Data for the mgt1 strain (AID 153); conditions: S. cerevisiae mgt1 mutant growth inhibition; at 1.2 µM; hits give high values
Compounds without any hit were thinned out: in the full panel of roughly 79,000, 15% have a hit.
experimental endpoint: growth inhibition (%)
Only the number, expressed in %, is required.

molecule="CC1CN(/N=C\\c2ccc([N+](=O)[O-])o2)C(=O)O1 (stereo unspecified)" experimental_endpoint="growth inhibition" uom=% assay_result=-1
molecule=COc1ccc2nc3cccc([N+](=O)[O-])c3c(NCCCCCC(=O)O)c2c1 experimental_endpoint="growth inhibition" uom=% assay_result=0
molecule=O=C(/N=N/C(=O)Oc1ccccc1)Oc1ccccc1 experimental_endpoint="growth inhibition" uom=% assay_result=-61
molecule=Clc1nc(Cl)nc(Nc2cccc3ccccc23)n1 experimental_endpoint="growth inhibition" uom=% assay_result=18
molecule=CC1=CC(=C(c2ccc(N)c(C)c2)c2ccc(N)c(C)c2)C=CC1=N experimental_endpoint="growth inhibition" uom=% assay_result=-2

[in] Would you kindly share the measured growth inhibition for `C[n+]1c(/C=C/c2ccc(/C=N/NC(=O)c3ccc(C(=O)N/N=C/c4ccc(/C=C/c5cn6ccccc6[n+]5C)cc4)cc3)cc2)cn2ccccc21` ?
[out] 42

[in] Let us now turn to `O=[N+]([O-])c1ccc2[nH]c3c(-c4ccccc4)nccc3c2c1`
[out] -2

[in] Let us now turn to `COc1cc2oc3ccccc3c(=O)c2cc1CSc1ccccc1N`
[out] 1

====

assay: NCI Yeast Anticancer Drug Screen. Data for the bub3 strain (AID 167); details: S. cerevisiae bub3 mutant strain, at 5.0 µM (retest, dose inferred, filed as 0.5)
The panel holds about 79,000 compounds, 15% with a hit somewhere; the sample as a whole holds those more often. Active and inactive are the calls of the source. No stated cut-off is given here; in the data, active means growth inhibition above about 70%; inactive means the rest.
Mark one answer only. Choices: active, inactive

Some solved cases for reference:
molecule="CC1C(c2ccccc2)SC(=N)N1C (centres undefined)" assigned_class=inactive
molecule=C1=CCN([B-](c2ccccc2)[C+]2CCCCC2)C=C1 assigned_class=inactive
molecule=CCN(CC)CCC(=O)Nc1ccc2sc3ccccc3c(=O)c2n1 assigned_class=inactive

[in] Could you kindly confirm the outcome this assay logged for `NC(=S)N1N=C2c3ccccc3CC[C@H]2[C@@H]1c1ccc(Cl)cc1` ?
[out] inactive

[in] Let us now turn to `O=C1c2cccc3cccc(c23)C(=O)N1O`
[out] active

[in] Let us now turn to `COc1cccc(/C=C2\S/C(=N/Nc3nc(-c4ccc([N+](=O)[O-])cc4)cs3)NC2=O)c1O`
[out] active

[in] Let us now turn to `CC/C(=C(\c1ccccc1)c1ccc(OCC[N+](C)(C)C)cc1)c1ccccc1`
[out] inactive

[in] Let us now turn to O=S(=O)(c1cccc(C(F)(F)F)c1)N1c2ccccc2-n2cccc2C1c1cccnc1 (centres undefined)
[out] inactive

[in] Let us now turn to `O=C(C(Cl)=C(N1CCCCC1)N1CCCCC1)C(Cl)Cl`
[out] inactive

[in] Let us now turn to `COC(=O)C(Cl)(Cl)N=Nc1c(Cl)cc(Cl)c(C)c1Cl`
[out] inactive

====

test: NCI Yeast Anticancer Drug Screen. Data for the rad52 strain (AID 147);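 also: 0% = growth of vehicle-treated control cultures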; conditions: S. cerevisiae rad52 mutant growth inhibition; at 100.0 µM; hits give high values
Compounds without any hit were thinned out: in the full panel of roughly 79,000, 15% have a hit.
experimental endpoint: growth inhibition (%)
Only the number, expressed in %, is required.

structure_as_smiles=CCc1c(Cl)c(C)c(Cl)c(O)c1Cl assay_result=99
structure_as_smiles=CCOC(=O)/C(=C\c1cccc(C)c1)C(C)=O assay_result=99
structure_as_smiles=CCCCS(=O)(=O)Nc1ccc(Nc2c3ccccc3nc3ccccc23)c(OC)c1 assay_result=96

[in] Would you kindly share the measured growth inhibition for `CCCCS/C(=C(/C#N)C(N)=O)c1cc2c([nH]1)CCCC2` ?
[out] 72

====

Catalogue of growth inhibition values
assay: NCI Yeast Anticancer Drug Screen. Data for the mec2-1 strain (AID 157); conditions: S. cerevisiae mec2-1 strain, at 1.2 µM, hits give high values
This is part of a sample that, as a whole, favours compounds with a hit. Of some 79,000 tested, about 15% had one in any assay.
Only the number, expressed in %, is required.

Known results for compounds:
compound="CC(CC/C(=N/O)c1ccccc1)(CC/C(=N\\O)c1ccccc1)[N+](=O)[O-] (centres undefined)" assay_result=-3
compound=NC(=O)NC1C(c2ccccc2)=C1c1ccccc1 assay_result=0
compound=CCOC(=S)SSSC(=S)OCC assay_result=-6

[in] Would you kindly share the measured growth inhibition for `O=C(CCSC1=NCCCN1)c1ccc(F)cc1` ?
[out] -15

[in] Let us now turn to CC(C)C(=O)CC(Sc1ccc(N)cc1)c1ccccc1 (centres undefined)
[out] 1

[in] Let us now turn to `O=C(CCCN1CCC(Nc2ccc(F)cc2)(c2nnnn2C2CCCCC2)CC1)c1ccc(F)cc1`
[out] -7

====

Catalogue of growth inhibition values
test: NCI Yeast Anticancer Drug Screen. Data for the wt2 strain (AID 169);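 also: 0% = growth of vehicle-treated yeast cultures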; conditions: S. cerevisiae wt2 strain growth inhibition; at 100.0 µM; hits give high values
Compounds without any hit were thinned out: in the full panel of roughly 79,000, 15% have a hit.
Only the number, expressed in %, is required.

Known results for compounds:
compound=CCC(/C=C/c1ccccc1)=N\Nc1ccc(Cl)c(Cl)c1 uom=% assay_result=95
compound=O=[N+]([O-])c1ccc(C(c2c[nH]c3ccccc23)c2c[nH]c3ccccc23)cc1 uom=% assay_result=88
compound=O=[N+]([O-])c1cc(Cl)ccc1S(=O)(=O)c1ccc(Cl)cc1[N+](=O)[O-] uom=% assay_result=84

[in] Would you kindly share the measured growth inhibition for `CC(=O)O/N=C1C=C/C(=C(/C#N)c2ccccc2)C=C/1C` ?
[out] 96

[in] Let us now turn to `CC(C)NCCCNc1c2ccccc2nc2cccc([N+](=O)[O-])c12`
[out] 97

[in] Let us now turn to CCC[CH2][Ge]([CH2]CCC)([CH2]CCC)[O]C(=O)C(O)c1ccccc1 (stereo not drawn)
[out] 99

[in] Let us now turn to `COC(=O)/C(C#N)=C\NC(=S)C(N)=S`
[out] 98

[in] Let us now turn to CC(C)(CN1CCCCC1)C(=O)CC(SCCS(=O)(=O)O)c1ccccc1 (stereo not drawn)
[out] 15

[in] Let us now turn to `CCCNCC(=O)O[C@]1(CC)C(=O)OCc2c1cc1n(c2=O)Cc2cc3ccccc3nc2-1`
[out] 82

[in] Let us now turn to `Nc1ccc2cc(Br)ccc2c1Br`
[out] 28

[in] Let us now turn to `CC/C(=C(\c1ccccc1)c1ccc(OCC[N+](C)(C)C)cc1)c1ccccc1`
[out] 99

[in] Let us now turn to COc1ccc2c3c1OC(C)C31CC(=O)CCC1CC2 (stereo not drawn)
[out] -11

[in] Let us now turn to `Oc1ccc(N=Nc2ccc(Cl)cc2)cc1`
[out] 99

====

assay: NCI Yeast Anticancer Drug Screen. Data for the rad14 strain (AID 159);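 also: 0% = growth of vehicle-treated control cultures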; conditions: S. cerevisiae rad14 strain growth inhibition; at 33.0 µM; hits give high values
The panel holds about 79,000 compounds, 15% with a hit somewhere; the sample as a whole holds those more often.
experimental endpoint: growth inhibition (%)
Only the number, expressed in %, is required.

molecule=Oc1ccc(N=Nc2ccc(Cl)cc2)cc1 experimental_endpoint="growth inhibition" assay_result=99

[in] Would you kindly share the measured growth inhibition for `CN(C)CCCn1c2c3ccccc3ccc2c2oc(=O)c3ccccc3c21` ?
[out] 83

[in] Let us now turn to `COc1ccc(/C=C2\SC(=S)N(/C=C3\C(=O)N(c4ccccc4)N=C3C)C2=O)cc1OC`
[out] 66

[in] Let us now turn to `O=C(C#Cc1ccccc1)/C=C/c1ccccc1`
[out] 82

[in] Let us now turn to O=C1SS(=O)c2ccccc21 (configuration not stated)
[out] -4

[in] Let us now turn to `O=C(c1ccccc1)[C@H]1Nc2ccc(Cl)cc2[C@H]2OCCC[C@@H]12`
[out] 31

[in] Let us now turn to `Cc1c(C(=O)/C=C/c2ccccc2[N+](=O)[O-])[n+](=O)c2ccccc2n1[O-]`
[out] 74

[in] Let us now turn to `CN(C)CC1=Nc2cccc3cccc(c23)N1`
[out] 51

[in] Let us now turn to `O=S1(=O)CCC2=CC(C(F)(F)F)=CC(C(F)(F)F)=CN21`
[out] 91

[in] Let us now turn to `CCOc1ccc(N)c(S)c1`
[out] 54

====

experiment: NCI Yeast Anticancer Drug Screen. Data for the bub3 strain (AID 167); conditions: S. cerevisiae bub3 mutant strain, at 5.0 µM (retest, dose inferred, filed as 0.5), hits give high values
About 79,000 compounds went through this panel and 15% of them were active in at least one assay; those are over-represented in the sample as a whole.
experimental endpoint: growth inhibition (%)
Only the number, expressed in %, is required.

structure_as_smiles=CN(C)N=Nc1ccc(N(C)C)cc1 experimental_endpoint="growth inhibition" assay_result=18
structure_as_smiles=Cc1ccc(S(=O)(=O)Nc2cccc3cccnc23)cc1 experimental_endpoint="growth inhibition" assay_result=29
structure_as_smiles=NC(=O)NC1C(c2ccccc2)=C1c1ccccc1 experimental_endpoint="growth inhibition" assay_result=-73

Attention now shifts to the item below.
[in] Would you kindly share the measured growth inhibition for `O=C(c1ccccc1)[C@H]1Nc2ccc(Cl)cc2[C@H]2OCCC[C@@H]12` ?
[out] 12
